# System: AncSZ
# Method: phosphorylation enrichment, bacterial display (enrichment ratio); higher = better substrate or ligand; peptides without Tyr show the background;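 further: 11-residue human phosphosite peptides and single-mutation variants displayed on the E. coli surface, counted by deep sequencing, each peptide's frequency after selection divided by its frequency in the unselected input library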;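 further: frequency after pTyr selection over input frequency; kinase dosed for 20-30% of maximal phosphorylation in three min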
// label = Y if phosphorylation enrichment is not less than 0.8, otherwise N

# Sequence, Answer Label
rows = [
    ("LTDLRYKVSGL", "N"),
    ("YLGRDYLETLM [DUS3L_Y610]", "Y"),
    ("EALDFYGEVRI [PTEN_Y155_T160I]", "Y"),
    ("NGSKAYAFVHF [PABPC5_Y147_G146A_YF]", "Y"),
    ("VRTGIYHGGKP [PIK3CA_Y361_E365K]", "N"),
    ("AQADIYKANFQ [IKBKG_Y308_D311N]", "N"),
    ("FTGNTYRVGDT [FN1_Y106_YF]", "N"),
    ("RSRSSYTHGLN [MYCT1_Y116]", "Y"),
    ("EPTPGYEVGQR [TSC2_Y1788]", "Y"),
    ("RIILLYIFLKN [STXBP1_Y411]", "Y"),
    ("FDCKWYIPLTD [BCR_Y756_YF]", "Y"),
    ("HFMKLYEEKTG [PARP1_Y618]", "Y"),
    ("ALWYIYLHTRS [ENG_Y614_S615L]", "Y"),
]

====

# Assayed Target: FGFR1 (UniProt P11362)
# Sequence (P11362 whole entry, looked up): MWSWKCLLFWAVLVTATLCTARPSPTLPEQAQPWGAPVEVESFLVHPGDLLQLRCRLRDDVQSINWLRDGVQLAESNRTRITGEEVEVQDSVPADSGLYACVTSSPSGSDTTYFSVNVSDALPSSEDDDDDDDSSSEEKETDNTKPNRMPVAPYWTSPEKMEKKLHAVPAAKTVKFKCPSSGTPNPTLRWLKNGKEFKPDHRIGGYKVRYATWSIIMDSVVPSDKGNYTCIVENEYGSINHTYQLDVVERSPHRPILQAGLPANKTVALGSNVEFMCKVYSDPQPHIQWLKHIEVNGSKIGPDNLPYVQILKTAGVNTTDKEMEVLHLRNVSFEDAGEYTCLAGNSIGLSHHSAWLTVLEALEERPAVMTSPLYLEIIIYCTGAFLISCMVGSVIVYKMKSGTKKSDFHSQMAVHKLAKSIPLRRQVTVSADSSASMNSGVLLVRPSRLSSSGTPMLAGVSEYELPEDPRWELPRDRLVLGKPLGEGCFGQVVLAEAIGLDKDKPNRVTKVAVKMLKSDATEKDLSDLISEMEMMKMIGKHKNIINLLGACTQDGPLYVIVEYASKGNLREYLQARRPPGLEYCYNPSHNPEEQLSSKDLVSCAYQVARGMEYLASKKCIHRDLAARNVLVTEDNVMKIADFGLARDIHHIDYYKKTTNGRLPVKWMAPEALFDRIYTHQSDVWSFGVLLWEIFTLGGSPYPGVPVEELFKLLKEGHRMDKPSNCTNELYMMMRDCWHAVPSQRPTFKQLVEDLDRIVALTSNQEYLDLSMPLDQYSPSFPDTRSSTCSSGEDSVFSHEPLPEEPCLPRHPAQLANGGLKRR
# Method: phosphorylation enrichment, bacterial display (enrichment ratio); higher = better substrate or ligand; peptides without Tyr show the background
Items are presented alongside their recorded phosphorylation enrichment.
Quantity Kind: phosphorylation enrichment

# Sequence, Assayed Target, Quantity Kind, Recorded Result
rows = [
    ("LDPDSYNVFEN [FOXC1_Y159_M161V]", "FGFR1 (UniProt P11362)", "phosphorylation enrichment", 0.527),
    ("VVQGIYGFHHH [UFSP2_Y285_Y290H_YF]", "FGFR1 (UniProt P11362)", "phosphorylation enrichment", 0.523),
    ("GGPAEYLRRAS [PKLR_Y38_G37E]", "FGFR1 (UniProt P11362)", "phosphorylation enrichment", 0.363),
    ("TGNGFYFRVFS [MYBPC3_Y1136_I1131T_YF]", "FGFR1 (UniProt P11362)", "phosphorylation enrichment", 0.433),
    ("KLMTEYKRRKQ [ARFGEF3_Y2029_K2031R]", "FGFR1 (UniProt P11362)", "phosphorylation enrichment", 0.677),
    ("LANNEYYFRVC", "FGFR1 (UniProt P11362)", "phosphorylation enrichment", 3.72),
    ("DFDNLYFWDQD [ERBB2_Y1221_A1216D_YF]", "FGFR1 (UniProt P11362)", "phosphorylation enrichment", 7.58),
    ("PSNTDYPGPHS [TP63_Y171]", "FGFR1 (UniProt P11362)", "phosphorylation enrichment", 0.511),
    ("SEQNNYSRVAN [CWC22_Y797_R794Q]", "FGFR1 (UniProt P11362)", "phosphorylation enrichment", 0.43),
    ("DPHQQYYIAMD [TBX15_Y159]", "FGFR1 (UniProt P11362)", "phosphorylation enrichment", 6.27),
    ("SIKNKYVTALF [KCNH2_Y611_D609N_YF]", "FGFR1 (UniProt P11362)", "phosphorylation enrichment", 0.417),
    ("DEEEEYEFMNR [ERBB3_Y1197_D1194E_YF]", "FGFR1 (UniProt P11362)", "phosphorylation enrichment", 0.572),
    ("RRIHSYRRHLW [VHL_Y112_G114R]", "FGFR1 (UniProt P11362)", "phosphorylation enrichment", 0.868),
]

// provenance: the supplement of paper PMC10065799
